Would you kindly list PO Dose at Max Effect for each of these compounds?
tested on: Apomorphine-induced agitation; assay: Reversal of Apomorphine-induced Agitation in Rats (APO); assay type: in vivo, rat; conditions: oral route
Note: unit mg/kg is implicit; provide only the numeric part.

Note to self: PO Dose at Max Effect of CCNC(=O)c1ccc2nc(C)c3nnc(-c4ccccc4)n3c2c1 [Compound B-65] with Apomorphine-induced agitation was 10

Note to self: PO Dose at Max Effect of CCNC(=O)c1ccc2nc(C)c3nnc(-c4ccccc4Cl)n3c2c1 [Compound B-10] with Apomorphine-induced agitation was 2.5

Note to self: PO Dose at Max Effect of COCCNc1ccc2nc(C)c3nnc(-c4ccccc4Cl)n3c2c1 [Compound B-67] with Apomorphine-induced agitation was 10

Note to self: PO Dose at Max Effect of CCNC(=O)c1ccc2nc(C)c3nnc(-c4ccccc4F)n3c2c1 [Compound B-51] with Apomorphine-induced agitation was 10

Note to self: PO Dose at Max Effect of Cc1nc2ccc(C(=O)NCc3ccccn3)cc2n2c(-c3cc(Cl)ccc3Cl)nnc12 [Compound B-11] with Apomorphine-induced agitation was 10

Note to self: PO Dose at Max Effect of Cc1nc2ccc(C(=O)NCCc3ccccc3)cc2n2c(-c3ccccc3)nnc12 [Compound B-54] with Apomorphine-induced agitation was 2.5

Note to self: PO Dose at Max Effect of Cc1ncccc1-c1nnc2c(C)nc3ccc(OC(F)(F)F)cc3n12 [Compound B-168] with Apomorphine-induced agitation was 10

Note to self: PO Dose at Max Effect of Cc1nc2ccc(C(=O)NCc3ccccn3)cc2n2c(-c3cc(F)ccc3Cl)nnc12 [Compound B-39] with Apomorphine-induced agitation was 10

Note to self: PO Dose at Max Effect of Cc1nc2ccc(C(=O)NCc3ccccc3)cc2n2c(-c3ccccc3)nnc12 [Compound B-9] with Apomorphine-induced agitation was 2.5

Data origin: patent US10604523B2
